quantity: pIC50
// scale note: pIC50 = -log10(conc_M); give the bare number

**Q:** API: value(readout= pIC50, system= β1i (LMP2) of mouse 20S immunoproteasome (IP) (Mus musculus, UniProt P28076), query= CCCCCCC/C=C/C=C/C(=O)N[C@H](C(=O)N[C@H]1C[C@@H](O)CCNC(=O)/C=C/[C@H](C)NC1=O)[C@@H](C)O [GlbA, glidobactin A] )
**A:** 6.60

* * *

// values below are pIC50; system is β5i of mouse 20S immunoproteasome (IP) (Mus musculus)
// scale note: pIC50 = -log10(conc_M); give the bare number

**Q:** API: value(readout= pIC50, system= β5i of mouse 20S immunoproteasome (IP) (Mus musculus), query= CCCCCCC/C=C/C=C/C(=O)N[C@H](C(=O)N[C@H]1CCCCNC(=O)/C=C/[C@H](C)NC1=O)[C@@H](C)O [LumA, luminmycin A] )
**A:** 8.05

**Q:** API: value(readout= pIC50, system= β5i of mouse 20S immunoproteasome (IP) (Mus musculus), query= CCCCCCC/C=C/C=C/C(=O)N[C@H](C(=O)N[C@H]1C[C@@H](O)CCNC(=O)/C=C/[C@H](C)NC1=O)[C@@H](C)O [GlbA, glidobactin A] )
**A:** 8.96
